tested on: Mycobacterium tuberculosis; assay: Antitubercular activity against Mycobacterium tuberculosis H37Rv after 7 days by microplate alamar blue assay; format: functional; details: 168 h

input-smiles: O=C(CO)N1CC=C(c2cc3c(cc2F)N2C(=O)O[C@@H](CNC(=O)C(F)(F)F)[C@@H]2CO3)CC1
study-system: Mycobacterium tuberculosis
unit: µg/mL
MIC90: 1.16

input-smiles: CC(=O)NC[C@@H]1OC(=O)N2c3cc(F)c(C4=CCN(C(=O)CN)CC4)cc3OC[C@@H]12.Cl
study-system: Mycobacterium tuberculosis
unit: µg/mL
MIC90: 0.732

input-smiles: COC(=O)NC[C@@H]1OC(=O)N2c3cc(F)c(C4=CCN(C(=O)CO)CC4)cc3OC[C@@H]12
study-system: Mycobacterium tuberculosis
unit: µg/mL
MIC90: 0.999

input-smiles: O=C1O[C@@H](CNC(=O)C(F)(F)F)[C@@H]2COc3cc(C4=CCN(CCO)CC4)c(F)cc3N12
study-system: Mycobacterium tuberculosis
unit: µg/mL
MIC90: 1.92

input-smiles: O=C(NC[C@@H]1OC(=O)N2c3cc(F)c(C4=CCN(CCO)CC4)cc3OC[C@@H]12)C1CC1
study-system: Mycobacterium tuberculosis
unit: µg/mL
MIC90: 0.473

input-smiles: O=C(CO)N1CC=C(c2cc3c(cc2F)N2C(=O)O[C@@H](Cn4ccnn4)[C@@H]2CO3)CC1
study-system: Mycobacterium tuberculosis
unit: µg/mL
MIC90: 10.9

input-smiles: O=C([C@@H](O)CO)N1CC=C(c2c(F)cc(N3C[C@H](COc4ccon4)OC3=O)cc2F)CC1
study-system: Mycobacterium tuberculosis
unit: µg/mL
MIC90: 1.02

input-smiles: COC(=O)NC[C@@H]1OC(=O)N2c3cc(F)c(C4=CCN(CCO)CC4)cc3OC[C@@H]12
study-system: Mycobacterium tuberculosis
unit: µg/mL
MIC90: 2.22

input-smiles: CC(=O)NC[C@@H]1OC(=O)N2c3cc(F)c(C4=CCN(C(=O)[C@@H]5CCCO5)CC4)cc3OC[C@@H]12
study-system: Mycobacterium tuberculosis
unit: µg/mL
MIC90: 5.53

input-smiles: O=C1O[C@@H](CNc2ccon2)[C@@H]2COc3cc(C4=CCN(CCO)CC4)c(F)cc3N12
study-system: Mycobacterium tuberculosis
unit: µg/mL
MIC90: 0.98

----------
test: Plasma elimination half life in Balb/c mouse at 100 mg/kg, po measured over 24 hrs by LC/TSQ quantum access mass spectrometric method; assay type: ADME, organism-based; conditions: read-out: beta t1/2 (converted)
measurement-name: half-life (h)

input-smiles: CC(=O)NC[C@@H]1OC(=O)N2c3cc(F)c(C4=CCN(C(=O)CO)CC4)cc3OC[C@@H]12
measurement-name: half-life
numeric-value: 4.22

----------
experiment: MRT in Balb/c mouse at 100 mg/kg, po measured over 24 hrs by LC/TSQ quantum access mass spectrometric method; format: ADME, organism-based; conditions: in vivo

input-smiles: CC(=O)NC[C@@H]1OC(=O)N2c3cc(F)c(C4=CCN(C(=O)CO)CC4)cc3OC[C@@H]12
MRT, h: 4.12

----------
assay: Clearance in Balb/c mouse at 10 mg/kg, iv measured over 24 hrs by LC/TSQ quantum access mass spectrometric method; assay type: ADME, organism-based; conditions: in vivo

input-smiles: CC(=O)NC[C@@H]1OC(=O)N2c3cc(F)c(C4=CCN(C(=O)CO)CC4)cc3OC[C@@H]12
unit: mL/min/kg
clearance: 13.9

----------
assay: Elimination half life in CD1 mouse at 10 mg/kg, po measured over 24 hrs by HPLC/MS/MS method; type: ADME, organism-based; details: in vivo, read-out: beta t1/2

compound: CC(=O)NC[C@H]1CN(c2ccc(N3CCOCC3)c(F)c2)C(=O)O1 [LINEZOLID]
half-life: < 1 h

----------
assay: Metabolic stability in human liver microsomes assessed as compound remaining at 0.1 uM in presence of NADPH after 30 mins by LC/MS method; assay type: ADME, microsome; conditions: read-out: Stability
measurement-name: remaining at 0.5 h, 0.1 µM (%)

input-smiles: CC(=O)NC[C@@H]1OC(=O)N2c3cc(F)c(C4=CCN(C(=O)CO)CC4)cc3OC[C@@H]12
measurement-name: remaining at 0.5 h, 0.1 µM
numeric-value: 103

----------
experiment: Oral bioavailability in Balb/c mouse at 100 mg/kg measured over 24 hrs by LC/TSQ quantum access mass spectrometric method; format: ADME, organism-based; details: in vivo

input-smiles: CC(=O)NC[C@@H]1OC(=O)N2c3cc(F)c(C4=CCN(C(=O)CO)CC4)cc3OC[C@@H]12
bioavailability: 102%

----------
experiment: Selectivity index, ratio of IC50 for African green monkey Vero cells to MIC for Mycobacterium tuberculosis H37Rv
selectivity ratio strictly less than 60 = TRUE. Otherwise FALSE.

molecule: CC(=O)NC[C@@H]1OC(=O)N2c3cc(F)c(C4=CCN(C(=O)[C@@H](O)CO)CC4)cc3OC[C@@H]12
cat: FALSE
//
molecule: CC(=O)NC[C@@H]1OC(=O)N2c3ccc(C4=CCN(CCO)CC4)cc3OC[C@@H]12
cat: TRUE
//
molecule: CC(=O)NC[C@@H]1OC(=O)N2c3cc(F)c(C4=CCN(CCO)CC4)cc3OC[C@@H]12
cat: FALSE
//
molecule: COC(=O)NC[C@@H]1OC(=O)N2c3cc(F)c(C4=CCN(CCO)CC4)cc3OC[C@@H]12
cat: TRUE
//
molecule: O=C(NC[C@@H]1OC(=O)N2c3cc(F)c(C4=CCN(CCO)CC4)cc3OC[C@@H]12)C1CC1
cat: FALSE
//
molecule: CC(=O)NC[C@H]1CN(c2ccc(N3CCOCC3)c(F)c2)C(=O)O1 [LINEZOLID]
cat: FALSE
//
molecule: CC(=O)NC[C@@H]1OC(=O)N2c3cc(F)c(C4CCN(C(=O)CO)CC4)cc3OC[C@@H]12
cat: TRUE
//
molecule: O=C1O[C@@H](CNc2ccon2)[C@@H]2COc3cc(C4=CCN(CCO)CC4)c(F)cc3N12
cat: FALSE
//
molecule: O=C(NC[C@@H]1OC(=O)N2c3cc(F)c(C4=CCN(CCO)CC4)cc3OC[C@@H]12)C1CCC1
cat: TRUE
//
molecule: O=C([C@@H](O)CO)N1CC=C(c2c(F)cc(N3C[C@H](COc4ccon4)OC3=O)cc2F)CC1 [POSIZOLID]
cat: FALSE
//
molecule: CC(=O)NC[C@@H]1OC(=O)N2c3ccc(C4=CCN(C(=O)CO)CC4)cc3OC[C@@H]12
cat: TRUE
//
molecule: O=C(CO)N1CC=C(c2cc3c(cc2F)N2C(=O)O[C@@H](CNC(=O)C(F)(F)F)[C@@H]2CO3)CC1
cat: TRUE
//
molecule: COC(=O)NC[C@@H]1OC(=O)N2c3cc(F)c(C4=CCN(C(=O)CO)CC4)cc3OC[C@@H]12
cat: FALSE
//
molecule: O=C1O[C@@H](CNC(=O)C(F)(F)F)[C@@H]2COc3cc(C4=CCN(CCO)CC4)c(F)cc3N12
cat: TRUE
//
molecule: CC(=O)NC[C@@H]1OC(=O)N2c3cc(F)c(C4=CCN(C(=O)CN)CC4)cc3OC[C@@H]12.Cl
cat: FALSE
//
molecule: O=C(NC[C@@H]1OC(=O)N2c3cc(F)c(C4=CCN(C(=O)CO)CC4)cc3OC[C@@H]12)C1CCC1
cat: TRUE
//
molecule: O=C(NC[C@@H]1OC(=O)N2c3cc(F)c(C4=CCN(C(=O)CO)CC4)cc3OC[C@@H]12)C1CC1
cat: TRUE

----------
assay: Cmax in Balb/c mouse at 10 mg/kg, iv measured over 24 hrs by LC/TSQ quantum access mass spectrometric method; assay type: ADME, organism-based; parameters: dose 10 mg/kg, route intravenous; conditions: in vivo
measurement-name: Cmax (ng/mL)

input-smiles: CC(=O)NC[C@@H]1OC(=O)N2c3cc(F)c(C4=CCN(C(=O)CO)CC4)cc3OC[C@@H]12
measurement-name: Cmax
numeric-value: 11400

----------
assay: Plasma elimination half life in Balb/c mouse at 10 mg/kg, iv measured over 24 hrs by LC/TSQ quantum access mass spectrometric method; assay type: ADME, organism-based; conditions: read-out: beta t1/2 (converted)

input-smiles: CC(=O)NC[C@@H]1OC(=O)N2c3cc(F)c(C4=CCN(C(=O)CO)CC4)cc3OC[C@@H]12
unit: h
half-life: 8.23

----------
assay: Tmax in Balb/c mouse at 10 mg/kg, iv measured over 24 hrs by LC/TSQ quantum access mass spectrometric method; assay type: ADME, organism-based; details: in vivo
measurement-name: Tmax (min)

input-smiles: CC(=O)NC[C@@H]1OC(=O)N2c3cc(F)c(C4=CCN(C(=O)CO)CC4)cc3OC[C@@H]12
numeric-value: 1.8

----------
test system: Mycobacterium tuberculosis; test: Antitubercular activity against Mycobacterium tuberculosis H37Rv after 7 days by microplate alamar blue assay; format: functional; details: 168 h
# maps each entry to its MIC90

input-smiles: CC(=O)NC[C@H]1CN(c2ccc(N3CCOCC3)c(F)c2)C(=O)O1
study-system: Mycobacterium tuberculosis
MIC90 (µg/mL): 0.304
//
input-smiles: O=C1O[C@@H](Cn2ccnn2)[C@@H]2COc3cc(C4=CCN(CCO)CC4)c(F)cc3N12
study-system: Mycobacterium tuberculosis
MIC90 (µg/mL): 7.96
//
input-smiles: CO[C@H]1/C=C/O[C@@]2(C)Oc3c(C)c(O)c4c(O)c(c(/C=N/N5CCN(C)CC5)c(O)c4c3C2=O)NC(=O)/C(C)=C\C=C\[C@H](C)[C@H](O)[C@@H](C)[C@@H](O)[C@@H](C)[C@H](OC(C)=O)[C@@H]1C
study-system: Mycobacterium tuberculosis
MIC90 (µg/mL): 0.057

These measurements were taken from ChEMBL document CHEMBL3997852.
